Assay: NCI Yeast Anticancer Drug Screen. Data for the mlh1 rad18 strain (AID 175)
Settings: S. cerevisiae mlh1 rad18 strain growth inhibition; at 5.0 µM (retest, dose inferred, filed as 0.5); stronger effect = higher value
The panel holds about 79,000 compounds, 15% with a hit somewhere; the sample as a whole holds those more often. Activity calls are given as the source filed them. Rule as the data show it: active = growth inhibition above about 70%; inactive = the rest.
Form field: growth inhibition (one value per entry).

// known answers, use as guide
INSERT INTO results (molecule, observed_measurement) VALUES
  ('Cc1cc(=O)n(-c2cc3cccccc-3n2)[nH]1', '-1% (inactive)'),
  ('O=C1C(SCCO)=C(SCCO)C(=O)c2ccccc21', '17% (inactive)'),
  ('CC(C)N=C(NC(C)C)SCCCCCCSC(=NC(C)C)NC(C)C', '-1% (inactive)'),
  ('CCCCN(Cc1ccccc1)CC(O)c1cc2c(c3ccccc13)CCCC2 (configuration not stated)', '18% (inactive)'),
  ('CC(=O)O[C@@H]1CO[C@H]2O[C@H]3[C@@H](C(C=O)=C[C@H](O)[C@@H]4C5=C(C(C)C)CC[C@]5(C)CC[C@@]34C)[C@@]2(O)C1=O', '98% (active)');

Noted for Cc1c(-c2ccccc2)ccnc1/C=N/NC(=S)NCCc1ccccc1 : its growth inhibition reads 49% (inactive)

Noted for C=CCOCCC=O : its growth inhibition reads 4% (inactive)

Noted for O=c1cc(Cl)c(Cl)nn1-c1ccccc1 : its growth inhibition reads 2% (inactive)

Noted for O=C(NC(Cc1ccc(I)cc1)C(=O)O)c1cccc(Br)c1 (configuration not stated) : its growth inhibition reads 23% (inactive)

Noted for CNC(=O)c1cc(NC(=O)c2ccc(C(=O)Nc3cc(C(=O)NC)cc(C4=NCCN4)c3)cc2)cc(C2=NCCN2)c1 : its growth inhibition reads 2% (inactive)

Noted for O.O.O=Cc1cc(Br)cc(Br)c1O.O=Cc1cc(Br)cc(Br)c1O.[Co] : its growth inhibition reads 79% (active)

Noted for Cc1cc(O)c(O)cc1C/C=C/c1ccccc1 : its growth inhibition reads -10% (inactive)

Noted for C(/Cc1ccc2c(c1)OCO2)=N\NC1=NCCCCN1 : its growth inhibition reads 0% (inactive)

Noted for Cn1ncc2c(Nc3cccc(Cl)c3)nc(Nc3cccc(Cl)c3)nc21 : its growth inhibition reads 32% (inactive)

Noted for CCOc1cc2c(cc1O)CC[C@@H]1[C@@H]2CC[C@]2(C)[C@@H](O)CC[C@@H]12 : its growth inhibition reads 27% (inactive)

Noted for O=C(Nc1c(Cl)cc([N+](=O)[O-])cc1Cl)/C(=N\Nc1cccc(Cl)c1)c1c(O)c2ccccc2oc1=O : its growth inhibition reads 26% (inactive)

Noted for COc1ccc(C(=O)CC(=O)c2ccccc2)cc1 : its growth inhibition reads 0% (inactive)

Noted for O=C(CCCCOCCCCC(=O)OCC1CCCO1)OCC1CCCO1 (configuration not stated) : its growth inhibition reads -1% (inactive)

Noted for Cc1ccc(S(=O)(=O)NC(Cc2ccccc2)C(=O)CCl)cc1 (configuration not stated) : its growth inhibition reads 86% (active)

Noted for CCCCCOC(=O)c1ccc(O)cc1 : its growth inhibition reads 3% (inactive)

Noted for O=C1C=CC(=O)N1Cc1ccccc1 : its growth inhibition reads 95% (active)

Noted for NCCOB1c2ccccc2Cc2ccccc21 : its growth inhibition reads 0% (inactive)

Noted for CC(C)CC(C(=O)SCC(C)N1CCCC1)c1ccccc1 (configuration not stated) : its growth inhibition reads 11% (inactive)

Noted for CCCCCCCCCCCCCCCCCC[N+](C)(C)Cc1ccc(C[N+](C)(C)CCCCCCCCCCCCCCCCCC)cc1 : its growth inhibition reads -3% (inactive)

Noted for CC(=O)N1C(c2[nH]c3ccccc3c2Cc2ccccc2)CCN1c1ccccc1 (configuration not stated) : its growth inhibition reads -27% (inactive)
